B1: DLC1 (parent)
chain: RDAIEALCRRLNTLNKCAVMKLEI

variants of: B1; assay: protein stability index of a GFP-peptide fusion (GPS, HEK-293T) (PSI 1-6); higher = more stable; conditions: c terminus: a fixed tail appended;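 note: lentivirally expressed fusions sorted by FACS into six bins by GFP to DsRed ratio, PSI derived from sequencing read proportions per bin multiplied by bin number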
Class field: derived from protein stability index; ranges low-valued (below 2), mid-valued (2 to below 3), high-valued (3 or more)

Enquiry: Lab log: R10M — assign protein stability index category
Return: high-valued

Enquiry: Moving on to K16L
Return: low-valued

Enquiry: Moving on to C8Q
Return: low-valued

Enquiry: Moving on to A6G
Return: high-valued

Enquiry: Moving on to C17L
Return: mid-valued

Enquiry: Moving on to L7D
Return: mid-valued

Enquiry: Moving on to C8I
Return: high-valued

Enquiry: Moving on to C17V
Return: high-valued

Enquiry: Moving on to C17Q
Return: low-valued

Enquiry: Moving on to C8W
Return: high-valued

This collection of values is drawn from the supplement of paper PMC10567573.
